Biological target: CDK6/Cyclin D1 (Homo sapiens (Human))
Sequence (Q00534 whole entry): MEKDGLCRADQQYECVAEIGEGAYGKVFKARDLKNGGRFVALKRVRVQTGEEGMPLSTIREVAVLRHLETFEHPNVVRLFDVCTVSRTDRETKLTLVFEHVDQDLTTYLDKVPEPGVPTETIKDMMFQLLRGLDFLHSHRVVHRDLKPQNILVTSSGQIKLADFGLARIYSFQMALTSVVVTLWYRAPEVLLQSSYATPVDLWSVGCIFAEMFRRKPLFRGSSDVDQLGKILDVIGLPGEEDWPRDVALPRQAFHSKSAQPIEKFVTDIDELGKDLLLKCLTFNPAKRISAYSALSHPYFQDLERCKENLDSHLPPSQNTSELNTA
Sequence (P24385 whole entry partner): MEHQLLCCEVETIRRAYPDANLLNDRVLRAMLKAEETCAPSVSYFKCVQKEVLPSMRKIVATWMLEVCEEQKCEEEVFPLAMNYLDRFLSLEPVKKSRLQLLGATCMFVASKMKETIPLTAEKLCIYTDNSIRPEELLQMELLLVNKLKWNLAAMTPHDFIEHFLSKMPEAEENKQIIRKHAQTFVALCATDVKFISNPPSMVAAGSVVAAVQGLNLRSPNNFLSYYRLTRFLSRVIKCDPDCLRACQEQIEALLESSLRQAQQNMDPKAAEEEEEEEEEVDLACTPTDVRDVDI
Test: biochemical
Details: CDK6_Ki (nM), non-phosphorylated CDK6/Cyclin D1, 2 mM ATP, Morrison fit
observation type: Ki (nM)

Ki on CDK6/Cyclin D1 (Homo sapiens (Human)) for COCCS(=O)(=O)N1CCC(Nc2ncc3cc(C)c(=O)n([C@@H]4CCC[C@@]4(C)O)c3n2)CC1 (single isomer, unassigned) is 0.15

Ki on CDK6/Cyclin D1 (Homo sapiens (Human)) for "Cc1cc2cnc(NC3CCN(S(C)(=O)=O)CC3)nc2n([C@@H]2CCC[C@@H]2C)c1=O" is 0.06

Ki on CDK6/Cyclin D1 (Homo sapiens (Human)) for C[C@@]1(O)CCC[C@H]1n1c(=O)c(F)cc2cnc(NC3CCN(S(C)(=O)=O)CC3)nc21 (single isomer, unassigned) [Example 5] is 13.1

Ki on CDK6/Cyclin D1 (Homo sapiens (Human)) for CS(=O)(=O)N1CCC(Nc2ncc3cc(Cl)c(=O)n([C@H]4CCC[C@H](O)C4)c3n2)CC1 (single isomer, unassigned) is 7.82

1. C[C@]1(O)CCC[C@@H]1n1c(=O)ccc2cnc(NC3CCN(S(=O)(=O)CC(F)(F)F)CC3)nc21 (single isomer, unassigned)
2. CS(=O)(=O)N1CC[C@H](Nc2ncc3cc(Cl)c(=O)n(C4CCCC4)c3n2)[C@@H](F)C1 (single isomer, unassigned)
Task item: Which shows the larger Ki value: 1 or 2 ? // output: label of the selected item
Reply: 1
(1: 8.23 nM, 2: 0.27 nM)

----------
Biological target: CDK2/Cyclin E1 (Homo sapiens (Human), UniProt P24941)
Test: biochemical
Settings: CDK2_Ki (nM), phosphorylated CDK2/Cyclin E1, 150 μM ATP, Morrison tight-binding fit
observation type: Ki (nM)

Some molecules with known Ki results, for comparison:
The molecule listed as CS(=O)(=O)N1CCC(Nc2ncc3cc(C(F)F)c(=O)n([C@@H]4CC[C@@H](O)C4)c3n2)CC1 (single isomer, unassigned) [Example 133] has a reported Ki of 2.37

The molecule listed as Cc1cc2cnc(NC3CCN(S(C)(=O)=O)CC3)nc2n([C@@H]2CCC[C@H]2O)c1=O [Example 173] has a reported Ki of 2.95

The molecule listed as C[C@]1(O)CCC[C@@H]1n1c(=O)ccc2cnc(NC3CCN(S(=O)(=O)c4nccs4)CC3)nc21 (single isomer, unassigned) [Example 79] has a reported Ki of 7.32

The molecule listed as C[C@]1(O)CCC[C@@H]1n1c(=O)ccc2cnc(NC3CCN(S(=O)(=O)NC4CCOCC4)CC3)nc21 (single isomer, unassigned) [Example 69] has a reported Ki of 4.48

1. COC(C)(C)CNS(=O)(=O)N1CCC(Nc2ncc3ccc(=O)n([C@H]4CCC[C@]4(C)O)c3n2)CC1 (single isomer, unassigned) [Example 61]
2. Cc1cc2cnc(NC3CCN(S(=O)(=O)C4CC4)CC3)nc2n([C@@H]2CCC[C@@]2(C)O)c1=O (single isomer, unassigned) [Example 112]
3. C[C@@]1(O)CCC[C@H]1n1c(=O)ccc2cnc(NC3CCN(S(=O)(=O)CC(F)(F)F)CC3)nc21 (single isomer, unassigned) [Example 86]
4. CNS(=O)(=O)N1CCC(Nc2ncc3ccc(=O)n([C@H]4C[C@H](O)CC[C@@H]4F)c3n2)CC1 (single isomer, unassigned) [Example 219]
5. CNS(=O)(=O)N1CCC(Nc2ncc3cc(CCO)c(=O)n(C4CCCC4)c3n2)CC1 [Example 146]
Task item: Order each entry by recorded Ki, climbing from the minimum. Put the labels in the requested order and list them out.
Reply: 2, 3, 4, 5, 1

a. CC[C@@]1(O)CCC[C@H]1n1c(=O)c(Cl)cc2cnc(NC3CCN(S(C)(=O)=O)CC3)nc21 (single isomer, unassigned) [Example 195]
b. C[C@@]1(O)CCC[C@H]1n1c(=O)ccc2cnc(NC3CCN(S(=O)(=O)NC[C@@H]4CCCO4)CC3)nc21 (single isomer, unassigned) [Example 62]
c. CNS(=O)(=O)N1CCC(Nc2ncc3cc(C)c(=O)n([C@@H]4CCC[C@@]4(C)O)c3n2)CC1 (single isomer, unassigned) [Example 94]
d. CNS(=O)(=O)N1CCC(Nc2ncc3ccc(=O)n(C4CCCC4)c3n2)CC1 [Example 11]
Task item: Order each entry by recorded Ki, climbing from the minimum. Put the labels in the requested order and list them out.
Reply: c, b, d, a

1. C[C@@]1(O)CCC[C@H]1n1c(=O)c(F)cc2cnc(NC3CCN(S(C)(=O)=O)CC3)nc21 (single isomer, unassigned) [Example 5]
2. Cc1cc2cnc(NC3CCN(S(=O)(=O)NC[C@@H]4CCCO4)CC3)nc2n([C@@H]2CCC[C@@]2(C)O)c1=O (single isomer, unassigned) [Example 100]
Task item: Which shows the larger Ki value: 1 or 2 ? // output: label of the selected item
Reply: 1

a. CNS(=O)(=O)N1CCC(Nc2ncc3cc(F)c(=O)n([C@H]4CCC[C@]4(C)O)c3n2)CC1 (single isomer, unassigned) [Example 125]
b. COCCc1cc2cnc(N[C@H]3CCN(S(C)(=O)=O)C[C@@H]3F)nc2n(C2CCCC2)c1=O (single isomer, unassigned) [Example 158]
c. COCCS(=O)(=O)N1CCC(Nc2ncc3cc(C)c(=O)n([C@@H]4CCC[C@@]4(C)O)c3n2)CC1 (single isomer, unassigned) [Example 114]
d. CS(=O)(=O)N1CCC(Nc2ncc3cc(C(F)F)c(=O)n([C@H]4CC[C@H](O)C4)c3n2)CC1 (relative stereo) [Example 134]
e. Cc1cc2cnc(NC3CCN(S(C)(=O)=O)CC3)nc2n(C2CCCCC(O)C2)c1=O (single isomer, unassigned; isomer b) [Example 224]
Task item: // ranking: key=Ki, reverse=True Put the labels in the requested order and list them out.
Reply: e, a, b, d, c
